Tested on: MS2 coat protein
Experiment: apparent KD of MS2 coat protein; designed switch direction (-1 OFF switch, 1 ON switch): -1; higher = weaker reporter binding
Conditions: Eterna round: R95; input ligand: none
Measurement Type: apparent KD of MS2 coat protein (nM)

AGUACUGACGCGUCGGUGUUAGUACAAUAAGCUUGUGAAACAUGAGGAUCACCCAUGUCCUCAUAAGCUCGUCUUAU [salish99_TOv2_r3_082] (puzzle: Sensor v3, turn-off variant 2); 15.4
GUGGAACAUGAGGAUCACCCAUGUGAGGAUAUGUGAGAAGGAUUUGAGAUGGAGAGGGACAGAAGGCACUAGGA [JR_Exclu1_Sub083] (puzzle: Exclusion 1); 55.8
AAAUGUUCGGAGGAUAUAGAACGAUUGUCCGAGCUAGAAGGCCGAACAUGAGGAUCACCCAUGUGUACCUUAAA [Tibiares] (puzzle: Exclusion 6); 53.7
AAGAAACAUGAGGAUCACCCAUGUCAGGAUAUCUCGAAAAGCAUAGAAAUAUGCGAAGAGAGAAGGGACUAUCC [ChP Ext 10-04-2015 #3] (puzzle: Exclusion 1); 31.6

----------
System: MS2 coat protein
Experiment: apparent KD of MS2 coat protein; higher = weaker reporter binding
Conditions: Eterna round: R107; input ligand: tryptophan 2.4 mM
Grouping rule (apparent KD of MS2 coat protein): range A (below 20 nM), range B (20 nM to below 40 nM), range C (40 nM or more)

AAGGUGAUCCCAGAUACCAGCUCAACAUGAGGAUCACCCAUGUACGGGACGAAAGUCCCGGGCCCUUGGCAGCUGGGUUGCCAAG [SSTheo B #19]; range C
CCUUUUAUUAAUGAUACCAGCGUAUUAAGCAUCACCUUGGACAUGAGGAUCACCCAUGUACGCCCUUGGCAGCAUACCACUGGGU [theeternabot_exclusion_MS2_Theo_B_5]; range B
ACAUGAGGAUCACCCAUGUACAUAAGGGAAGGAGCGCGGUGAAACGCAGGUAGGUCGCCCAUAAUAUCUAACAUUAAAUUCAUGU [LeftA3]; range A
CUUAUACAUGAGGAUCACCCAUGUGGUGAUACCAGCCACGAUCAAGGCCCUUGGCAGCACAAAGGGAAUAAUAUGAUUACAAAAC [theeternabot_sameState_MS2_Theo_A_6]; range C
GGACUAACCAGAAGGAGCGACGCGCAGAAACUGCAAAUUCCUCCACACGAGGAUCACCCGUGUCAGGUAGGUCGCUGGUUAGUCG; range A
UAUAUAUAUAUGGAUACCAGCAGAGAAAACGUUUAUCCUAACAUGAGGAUCACCCAUGUAUGCCCUUGGCAGCUGUGUAUAUAUA [8.H]; range A
UAAUAAAUAAAUCCAAGGUGAAGGUCAGAUACCAGCCAGAUAACUGGCCCUUGGCAGCUGAAUAAGCUUGAGGAUCACCCAAGUA [TheoAS 26 #OpenEnded #MS2Late #AlternativeMS2]; range B
AAAAGAGGUGGAAGGAGCGGGAGACAUGAGGAUCACCCAUGUGAAGUGACGAAAGGAUCAGCCCAGGUAGGUCGCCAUGUCGAAA [yuiiumullin]; range C
UUAGCACAUGAGGAUCACCCAUGUCUCGAUACCAGAUAAGUUCCGAUCCCUUGGCAGCGACAAGCUUGCAAACUGCGACUAUUCU [theeternabot_sameState_MS2_Theo_A_42]; range B
CUCCGAGGCUAUACUAUACGCCUUUGUGAUACCAGAAUAAAUAUAUUCCCUUGGCAGCAUCACAUGAGGAUCACCCAUGUGCCAU [SSTheo A #12]; range A
UACAGUACAACAGAUACCAGACAGUACUCUAGAUUGCAACAUGAGGAUCACCCAUGUAUAGUCCCUUGGCAGCUGUAAUGGGUGA [Theo B SS s1]; range C
AAGACGGUCGGAAGGAGCGGUACAUGAGGAUCACCCAUGUACCUCUGGGCAUCCGUAGUGUGCCAGGUAGGUCGCCGAUUGCGGG [Esorbevege]; range A
CGGUUUGUGAUGGAUACCAGCAGAGAAAAUGUUUAUCCUGACAUGAGGAUCACCCAUGUGUGCCCUUGGCAGCUGUUGUGGGCUG [8.X]; range C

----------
System: K4 kissing-loop RNA reporter
Assay: apparent KD of K4 kissing-loop reporter; higher = weaker reporter binding
Settings: Eterna round: R107; input ligand: arginine 13.2 mM
Measurement Type: apparent KD of K4 kissing-loop reporter

GGGCGCGGCGCGGCCGCCACUGCGCCUGGGUGCUCGCCGAGUGAUGUUCGUCGGCGGUUGGGUGGCAGGACCGGGUGCCGGCCCG [BDazzled - #17 SS Tryptophan B]; 533 nM
AAGCAGUCACUCGAACCCAUCGAAGAUGGGCGAGGACCGGUACGGCCGCCACUCGGAGUGAUGUUCCGCAGACUGCAAAAUAAAA; 265 nM
GAAUGAUAGUAAGGAUAUAGAUAAUCCUUAUAUAUAUCGAGUGAUGUUCGAUGUGGCAAGAUACAUCUAGAAGGUACUGUAAGGU [Same State FMN B GF 16]; 321 nM
GCUAUGGUAGGAAGGAGCGCUUAAUUACUAAUAAGAGUGAUGUUCGAUAGUAGGUAUUUGUAGCAGGUAGGUCGCCUACUAUAGC [KL-Arg B24]; 174 nM
AAACUCAGUGAUGUUGAGUGGGAGCGGGAUACCAGAUCGCCCAUCAUCCCUUGGCAGCCCGAGCGUCAGAAUACAUUUCAUUUGC [theeternabot_sameState_KL_Theo_A_6]; 349 nM
AAAAUAAACCAGUGAUGUUGGUGUCUAGAUACCAGCGACAAAAGUCGCCCUUGGCAGCUACGGACGUACAAAAUAAGUACGUCCU [MatMod 9 - Jieux - Same State - Theophylline A]; 353 nM
CUUAGGUCAGUUACCCGAGUGAUGUUCUGUCGAGGACCGGUACGGCCGCCACUCGCUCAUUAUCGGUCUGACAAAGAGCUGGCUU [theeternabot_exclusion_KL_Trp_A_9]; 56.4 nM
UUAGAGAUCUCAGGAUAUGAGUGAUGUUGAUAUCAAGAUCUGAGAUAGAAUUCUAUCUCAGAUCAAUCAGAAGGGAGAUCUCAUU [AK1.3 Exc FMN B]; 109 nM
GUGCGCGGUGCGGCCGCCACUCGGAUGCGAGUGAUGUUCGCGGGACGGACGCAAGUCCGUCAUUCGAGGACCGGGCAUGGCUGUA [#2 Same State - Tryptophan B Attempt #5 (HarryS)]; 274 nM
UAUGCUUGUGCUGAUACCAGUGUUAGUGAUGUUAGGACUGUCAGUAGGAUGCGUGCAUUUCACCCUUGGCAGCAGUAUCGCAGCA [theeternabot_exclusion_KL_Theo_B_48]; 295 nM
GAGUCCUUUGAAGGAUAUAGACGUCCCGAUCACUCAGUUGGCGAGCGAGUGAUGUUCGUUCCUAUACUAGAAGGUCAAAGCCUCC [theeternabot_sameState_KL_FMN_B_32]; 193 nM
GAUCUGAACGAAAGUUCGGAUCAGUCCGAUACCAGUAUGGAUUCAUACCCUUGGCAGCGGUUAUCUGCUAUGGAGUGAUGUUCCA [Theophylline A K4 11]; 344 nM
UGUCAUUGGUCGGCCGCCACUUGAAGGUCAAAGACCAUAGAGUGAUGUUCUAAGACGAAAGUCACAAGGACCGGGACCGAUGACU [TrypBS 3 #SwitchBubble #K4Middle]; 134 nM
AAAAGAAAGUCGGCCGCCACUCAACGCAGUGAUGUUGCAAGACAGAAGACCAGUGAUGUUGGCCAGAGGACCGGGACAAAAGGCC [Same State Typtophan B GF 4]; 945 nM
GUUGACAGACUGCAAAACUAGUCAACAGACUAGGAUAUCAGGAAACUGAGAAGGAGUCAAGUUGCAGUGAUGUUGCAAGAAUAAU [KL-SSFMN-A27]; 182 nM
GACUCUCUCGUCAGGAAGACGCACUCAGCCAAGGAUAUUAUGUUUUUAAGAAGGUGGACUUAUGCCAGUGAUGUUGGCAGAUACG [theeternabot_sameState_KL_FMN_A_29]; 86.1 nM
UGUUACCAGUGAUGUUGGGAGAUGAAGAGCAAGGAUAUGUGAUAGUACAGAAGGUGCGUCGUCGUGAUUAUCACGCUCUGUGUUA [theeternabot_exclusion_KL_FMN_A_8]; 98.3 nM
AUUUAAUUAACUGAUACCAGACUUUAUGUAUUUAUUAAAACUAGUGAUGUUAGUUUAUCUGUCCCUUGGCAGCAGUUUCUACUUA [JR_Nu_ExcTheophyB_Sub021]; 113 nM

----------
We begin with a simple list: items and their reported apparent KD of K4 kissing-loop reporter.
System: K4 kissing-loop RNA reporter;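 note: bound reporter read as fluorescence of individual clusters on recovered sequencing chips by microscopy, with normalized cluster intensities fitted with a binding model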
Experiment: apparent KD of K4 kissing-loop reporter; higher = weaker reporter binding
Conditions: Eterna round: R107; input ligand: arginine 13.2 mM
Measurement Type: apparent KD of K4 kissing-loop reporter (nM)

CAAGCUCUCCAAGGAUAUGAUAUCGACCCGUCUUAGUGAUGUUAAGGCUGUAGAAAUUCACAUUGAUCAGAAGGUGGUACCCUCC [theeternabot_sameState_KL_FMN_B_8]; 194
UGAUAGGACAGAAGGAGCGGUAGUGAUGUUGCCAAAAGUAUAAGGUGUCAAAAGACACCCUACCAGGUAGGUCGCUGUCCUAUCU; 346
AGCGGCCAGUCGGCCGCCACUCCGGGCAGUGAUGUUGCGAAGUGUCUACUAGAGUGAUGUUCUAAGAGGACCGGGACUGACGUAU [Exclusion Tryptophan B Gf 11]; 394
UCGAUCGCUAGUGAUGUUGGUGUGCUACAUCGAGGACCGGUACGGCCGCCACUCGAGCCCGAGUAGAAGGGUGGGCUGCUAUGAA [theeternabot_sameState_KL_Trp_A_18]; 1030
